Heads up, these compounds all have AC50 values measured for Sodium-dependent noradrenaline transporter (Homo sapiens).

Per the records, this compound ( CCc1ccc(CCOc2ccc(CC3SC(=O)NC3=O)cc2)nc1 (stereo not drawn) ) has AC50 equal to > 30 µM

Per the records, this compound ( CC(C)C(=O)Nc1ccc([N+](=O)[O-])c(C(F)(F)F)c1 [FLUTAMIDE] ) has AC50 equal to > 10 µM

Per the records, this compound ( COc1ccccc1OCC(O)COC(N)=O (stereo not drawn) ) has AC50 equal to > 10 µM

Per the records, this compound ( `O=C(O)c1cc(-c2ccc(F)cc2F)ccc1O` ) has AC50 equal to > 10 µM

Per the records, this compound ( CN1CCN(C(=O)OC2c3nccnc3C(=O)N2c2ccc(Cl)cn2)CC1 (stereo not drawn) ) has AC50 equal to > 30 µM

Per the records, this compound ( `CC(C)(N)Cc1ccc(Cl)cc1` ) has AC50 equal to 13.7 µM

Per the records, this compound ( NC(CO)C(=O)NNCc1ccc(O)c(O)c1O (stereo not drawn) [BENSERAZIDE] ) has AC50 equal to > 30 µM

Per the records, this compound ( O=C(CCCCC(=O)Nc1c(I)cc(I)c(C(=O)O)c1I)Nc1c(I)cc(I)c(C(=O)O)c1I [IODIPAMIDE] ) has AC50 equal to > 10 µM

Per the records, this compound ( `Nc1nc(N)c2nc(-c3ccccc3)c(N)nc2n1` ) has AC50 equal to > 30 µM

Per the records, this compound ( `CCCCCN(C)CCC(O)(P(=O)(O)O)P(=O)(O)O` ) has AC50 equal to > 30 µM

Per the records, this compound ( NC1=NC(=O)C(c2ccccc2)O1 (stereo not drawn) ) has AC50 equal to > 30 µM

Per the records, this compound ( C#CC1(OC(N)=O)CCCCC1 [ETHINAMATE] ) has AC50 equal to > 10 µM

Per the records, this compound ( `CC1=CC(=O)c2ccccc2C1=O` ) has AC50 equal to > 10 µM

Per the records, this compound ( O=C1CCC(N2C(=O)c3ccccc3C2=O)C(=O)N1 (stereo not drawn) [THALIDOMIDE] ) has AC50 equal to > 10 µM

Per the records, this compound ( `CNC(=O)c1cc(Oc2ccc(NC(=O)Nc3ccc(Cl)c(C(F)(F)F)c3)cc2)ccn1` ) has AC50 equal to > 30 µM

Per the records, this compound ( Cc1cccc(C)c1OCC(C)N (stereo not drawn) ) has AC50 equal to > 30 µM

Per the records, this compound ( `CC[C@]1(O)C[C@@H]2CN(CCc3c([nH]c4ccccc34)[C@@](C(=O)OC)(c3cc4c(cc3OC)N(C)[C@H]3[C@@](O)(C(N)=O)[C@H](O)[C@]5(CC)C=CCN6CC[C@]43[C@@H]65)C2)C1` ) has AC50 equal to > 30 µM

Per the records, this compound ( `COC(=O)C1=C(C)NC(C)=C(C(=O)OC)C1c1ccccc1[N+](=O)[O-]` ) has AC50 equal to > 10 µM

Per the records, this compound ( CN1CCCC(n2nc(Cc3ccc(Cl)cc3)c3ccccc3c2=O)CC1 (stereo not drawn) ) has AC50 equal to 4.7 µM

Per the records, this compound ( CC(C(=O)O)c1ccc(N2CC=CC2)c(Cl)c1 (stereo not drawn) ) has AC50 equal to > 10 µM

Per the records, this compound ( NC(=O)C[S+]([O-])C(c1ccccc1)c1ccccc1 (stereo not drawn) ) has AC50 equal to > 10 µM

Per the records, this compound ( NS(=O)(=O)c1cc(Cl)c(Cl)c(S(N)(=O)=O)c1 [DICHLORPHENAMIDE] ) has AC50 equal to > 10 µM

Per the records, this compound ( `CCCCCCCCCCCC[N+](C)(C)CCOc1ccccc1` ) has AC50 equal to 1.4 µM

Per the records, this compound ( `CS(=O)(=O)Nc1cc2occ(NC=O)c(=O)c2cc1Oc1ccccc1` ) has AC50 equal to > 30 µM

Per the records, this compound ( `OCCN1CCN(CCCN2c3ccccc3C=Cc3ccccc32)CC1` ) has AC50 equal to > 30 µM

Per the records, this compound ( `CCCCCOC(=O)Nc1nc(=O)n([C@@H]2O[C@H](C)[C@@H](O)[C@H]2O)cc1F` ) has AC50 equal to > 30 µM

Per the records, this compound ( CC(C)[N+](C)(CCC(C(N)=O)(c1ccccc1)c1ccccc1)C(C)C [ISOPROPAMIDE] ) has AC50 equal to > 10 µM

Per the records, this compound ( CC(C(O)c1ccc(O)cc1)N1CCC(Cc2ccccc2)CC1 (stereo not drawn) ) has AC50 equal to 2.5 µM

Per the records, this compound ( `COc1ccc2c(c1)C(=O)N(CCc1ccc(S(=O)(=O)NC(=O)NC3CCCCC3)cc1)C(=O)C2(C)C` ) has AC50 equal to > 30 µM

Per the records, this compound ( CC(C)C(=O)OCC(=O)[C@@]12O[C@H](C3CCCCC3)O[C@@H]1C[C@H]1[C@@H]3CCC4=CC(=O)C=C[C@]4(C)[C@H]3[C@@H](O)C[C@@]12C [CICLESONIDE] ) has AC50 equal to > 10 µM

Per the records, this compound ( NC(=O)c1cnccn1 [PYRAZINAMIDE] ) has AC50 equal to > 30 µM

Per the records, this compound ( `OCc1cc([C@@H](O)CNCCCCCCOCCOCc2c(Cl)cccc2Cl)ccc1O` ) has AC50 equal to 23 µM

Per the records, this compound ( `CCC1(C2=CCCCCC2)C(=O)NC(=O)NC1=O` ) has AC50 equal to > 10 µM
